target: HLA-B*15:01; assay: IEDB peptide-MHC binding, purified MHC/competitive/fluorescence; filed as Kd, often an IC50 or EC50 that approximates it; bounds were set here for any values at or beyond the usual limits of such assays; conditions: source organism: Shigella flexneri 5 str. 8401
measured-attribute: Kd

Return value of Kd for input "GELESAIGL" , no commentary.
≥ 20 µM

###

Would you mind telling me the reported pKd of each entry?
target: HLA-B*15:17; assay: IEDB peptide-MHC binding, purified MHC/competitive/fluorescence; filed as Kd, often an IC50 or EC50 that approximates it; bounds were set here for any values at or beyond the usual limits of such assays; conditions: source organism: Zaire ebolavirus
pKd: −log10 of the molar value.

Return value of pKd for input "EAEKQLQQY" , no commentary.
≤ 4.70

Return value of pKd for input "FLILPQAKK" , no commentary.
≤ 4.70

Return value of pKd for input "KLINTLFHA" , no commentary.
≤ 4.70
